tested on: Jurkat; test: Antiproliferative activity against human Jurkat cells after 72 hrs by MTT assay; type: functional, cell-based
outcome.measure: IC50 (nM)
Express your answer in nM, writing the number without its unit.

Previously resolved entries follow.
compound.structure.string | IC50 (nM)
CCOc1ccc(-c2sc(N(C)C)nc2-c2cc(OC)c(OC)c(OC)c2)cc1 | 4150
COc1ccc(-c2sc(C)nc2-c2cc(OC)c(OC)c(OC)c2)cc1 | 1760
CCOc1ccc(-c2sc(C)nc2-c2cc(OC)c(OC)c(OC)c2)cc1 | 1740

Query :: Value wanted: IC50 (Jurkat) of entry `CNc1nc(-c2cc(OC)c(OC)c(OC)c2)c(-c2ccc(OC)cc2)s1`
Result :: 34.3
